Attribution: BindingDB's records for doi:10.1021/jm00346a020

tested-system: Dihydrofolate reductase (Gallus gallus, UniProt P00378)
Sequence (P00378 whole entry): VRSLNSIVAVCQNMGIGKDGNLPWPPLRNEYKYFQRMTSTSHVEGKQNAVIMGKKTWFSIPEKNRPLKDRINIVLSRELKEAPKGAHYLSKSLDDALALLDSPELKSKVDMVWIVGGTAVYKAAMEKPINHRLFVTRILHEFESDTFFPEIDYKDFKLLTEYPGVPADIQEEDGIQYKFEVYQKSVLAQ
test-protocol: Inhibitory activity against chicken Dihydrofolate reductase at pH 7.2.
readout: pKi
API: returns pKi as number; meaning -log10 of concentration in mol/L.

Query :: Fill in the blank: the reported pKi of COCCOc1cccc(Cc2cnc(N)nc2N)c1 is ____.
Result :: 4.83

* * *

tested-system: Dihydrofolate reductase (Bos taurus)
Sequence (P00376 whole entry): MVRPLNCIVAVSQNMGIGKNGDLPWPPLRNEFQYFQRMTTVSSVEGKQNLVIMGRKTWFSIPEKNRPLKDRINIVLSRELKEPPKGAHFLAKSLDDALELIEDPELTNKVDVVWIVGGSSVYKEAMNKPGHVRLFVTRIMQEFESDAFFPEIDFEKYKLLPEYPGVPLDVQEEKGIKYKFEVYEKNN
test-protocol: Inhibitory activity against bovine liver Dihydrofolate reductase at pH 7.2.
readout: pKi
Reminder that pKi means the negative base-10 logarithm of the concentration expressed in mol/L.

The examples below pair each entry with its known result.
| molecular-string | tested-system | readout | value |
| --- | --- | --- | --- |
| COCCOc1ccc(Cc2cnc(N)nc2N)cc1 | Dihydrofolate reductase (Bos taurus) | pKi | 5.31 |
| CCCCCCOc1ccc(Cc2cnc(N)nc2N)cc1 | Dihydrofolate reductase (Bos taurus) | pKi | 5.55 |
| COCCOc1cccc(Cc2cnc(N)nc2N)c1 | Dihydrofolate reductase (Bos taurus) | pKi | 5.58 |
| COCCOc1ccc(Cc2cnc(N)nc2N)cc1OCCOC | Dihydrofolate reductase (Bos taurus) | pKi | 5.17 |
| Nc1ncc(Cc2cc(O)cc(O)c2)c(N)n1 | Dihydrofolate reductase (Bos taurus) | pKi | 3.39 |
| NC(=O)COc1cccc(Cc2cnc(N)nc2N)c1 | Dihydrofolate reductase (Bos taurus) | pKi | 5.27 |

Alright, here's another compound for you.
Query :: Given CCCCCCCOc1ccc(Cc2cnc(N)nc2N)cc1 , state its recorded pKi.
Result :: 5.45

* * *

tested-system: Dihydrofolate reductase (Gallus gallus)
test-protocol: Inhibitory activity against chicken dihydrofolate reductase at pH 7.2.
readout: pKi
Schema: pKi number; meaning minus log10 of the concentration expressed in molar units.

Consider the following illustrative entries.
| molecular-string | pKi |
| --- | --- |
| COc1ccc(Cc2cnc(N)nc2N)cc1C(F)(F)F | 4.99 |
| Nc1ncc(Cc2ccc(F)cc2)c(N)n1 | 4.79 |
| CN(C)c1ccc(Cc2cnc(N)nc2N)cc1 | 4.01 |
| Nc1ncc(Cc2cccc(F)c2)c(N)n1 | 4.70 |
| Cc1cccc(Cc2cnc(N)nc2N)c1 | 4.72 |

Query :: Give pKi (Dihydrofolate reductase (Gallus gallus)) of the following compound: Nc1ncc(Cc2cccc(Cl)c2)c(N)n1
Result :: 5.01

Query :: Test system Dihydrofolate reductase (Gallus gallus); read-out pKi; what value for Nc1ncc(Cc2ccc(OC(F)(F)F)cc2)c(N)n1 ?
Result :: 4.26

Query :: Dihydrofolate reductase (Gallus gallus) / pKi / Nc1ncc(Cc2ccc([N+](=O)[O-])cc2)c(N)n1 : value?
Result :: 4.37

Query :: # value lookup — system Dihydrofolate reductase (Gallus gallus), readout pKi, item Nc1ncc(Cc2ccccc2)c(N)n1
Result :: 4.71

Query :: # query: pKi | item Nc1ncc(Cc2cccc(I)c2)c(N)n1 | system: Dihydrofolate reductase (Gallus gallus)
Result :: 4.79

Query :: Write down the reported pKi of COc1ccc(Cc2cnc(N)nc2N)cc1OC , test system: Dihydrofolate reductase (Gallus gallus).
Result :: 4.46
